# Target Of Assay: mouse Mdr1a (Mus musculus)
# Sequence (P21447 whole entry): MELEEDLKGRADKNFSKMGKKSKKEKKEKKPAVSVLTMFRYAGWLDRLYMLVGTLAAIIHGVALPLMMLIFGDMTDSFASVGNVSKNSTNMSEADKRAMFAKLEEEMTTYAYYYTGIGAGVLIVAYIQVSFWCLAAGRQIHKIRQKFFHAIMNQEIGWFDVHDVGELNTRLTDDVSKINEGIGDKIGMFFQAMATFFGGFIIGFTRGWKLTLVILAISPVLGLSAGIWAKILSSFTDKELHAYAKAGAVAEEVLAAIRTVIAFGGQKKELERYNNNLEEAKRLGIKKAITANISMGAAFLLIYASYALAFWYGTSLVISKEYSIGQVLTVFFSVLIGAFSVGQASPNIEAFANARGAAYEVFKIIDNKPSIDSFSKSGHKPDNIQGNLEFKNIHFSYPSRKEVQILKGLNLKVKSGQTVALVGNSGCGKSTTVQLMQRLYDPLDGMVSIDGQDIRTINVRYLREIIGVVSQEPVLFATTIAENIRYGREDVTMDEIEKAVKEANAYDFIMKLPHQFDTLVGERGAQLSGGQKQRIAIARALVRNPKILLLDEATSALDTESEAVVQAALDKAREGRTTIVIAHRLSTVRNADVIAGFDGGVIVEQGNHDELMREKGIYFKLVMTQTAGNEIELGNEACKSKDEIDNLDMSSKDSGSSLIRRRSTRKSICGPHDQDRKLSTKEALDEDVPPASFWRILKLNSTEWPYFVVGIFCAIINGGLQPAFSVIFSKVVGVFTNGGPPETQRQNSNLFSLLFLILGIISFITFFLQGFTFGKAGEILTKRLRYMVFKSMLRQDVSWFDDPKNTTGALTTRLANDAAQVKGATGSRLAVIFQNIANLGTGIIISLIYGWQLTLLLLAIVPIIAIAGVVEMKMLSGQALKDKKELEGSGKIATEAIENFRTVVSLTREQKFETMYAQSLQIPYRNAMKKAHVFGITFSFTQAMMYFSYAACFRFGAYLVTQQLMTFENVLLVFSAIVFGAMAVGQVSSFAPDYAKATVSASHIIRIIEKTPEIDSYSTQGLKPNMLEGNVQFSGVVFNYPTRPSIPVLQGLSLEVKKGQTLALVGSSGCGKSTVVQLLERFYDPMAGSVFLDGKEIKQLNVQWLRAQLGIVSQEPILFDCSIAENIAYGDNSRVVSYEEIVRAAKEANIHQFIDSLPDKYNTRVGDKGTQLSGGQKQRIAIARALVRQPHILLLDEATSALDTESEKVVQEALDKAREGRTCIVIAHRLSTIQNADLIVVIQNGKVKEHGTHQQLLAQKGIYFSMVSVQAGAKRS
# Protocol Details: Inhibition of 3H-digoxin or 3H-quinidine bidirectional transport in mMDR1 cells
# Type: cell-based
# Set-up: mouse Mdr1a (NM_011076.3); expressed in transfected cells; host or cells: Abcb1KO-MDCKII (canine kidney, endogenous Abcb1 knocked out), transduced, single-cell clone
# Conditions: Inhibition of quinidine transport IC50±SD, mMDR1, probe 3H-quinidine 1 µM, 60 min; IC50 from ER
pIC50: −log10 of the molar value.

{"Compound": "CCC(C)n1ncn(-c2ccc(N3CCN(c4ccc(OCC5COC(Cn6cncn6)(c6ccc(Cl)cc6Cl)O5)cc4)CC3)cc2)c1=O (centres unmarked)", "Readout Relation": "=", "pIC50": 6.32}
{"Compound": "Cc1ccc(-c2ncc(Cl)cc2-c2ccc(S(C)(=O)=O)cc2)cn1", "Readout Relation": "=", "pIC50": 4.65}
{"Compound": "COc1ccccc1OCCNCC(O)COc1cccc2[nH]c3ccccc3c12 (centres unmarked)", "Readout Relation": "=", "pIC50": 5.79}
{"Compound": "Cc1ccccc1C(=O)Nc1ccc(C(=O)N2CCCC(O)c3cc(Cl)ccc32)c(C)c1 (centres unmarked)", "Readout Relation": "=", "pIC50": 5.41}
{"Compound": "CCCc1nc2c(C)cc(-c3nc4ccccc4n3C)cc2n1Cc1ccc(-c2ccccc2C(=O)O)cc1", "Readout Relation": "=", "pIC50": 5.64}
{"Compound": "COC(=O)C1=C(C)NC(C)=C(C(=O)OC(C)C)C1c1cccc2nonc12 (centres unmarked)", "Readout Relation": "=", "pIC50": 4.71}
{"Compound": "CN(C)C(=O)C(CCN1CCC(O)(c2ccc(Cl)cc2)CC1)(c1ccccc1)c1ccccc1 [Loperamide]", "Readout Relation": "=", "pIC50": 6.02}
{"Compound": "CCOC(=O)C1=C(C)NC(C)=C(C(=O)OC)C1c1cccc(Cl)c1Cl (centres unmarked)", "Readout Relation": "<", "pIC50": 4.00}

----------
# Target Of Assay: cynomolgus monkey Mdr1 (Macaca fascicularis, UniProt Q8HZQ6)
# Sequence (Q8HZQ6 1-1283): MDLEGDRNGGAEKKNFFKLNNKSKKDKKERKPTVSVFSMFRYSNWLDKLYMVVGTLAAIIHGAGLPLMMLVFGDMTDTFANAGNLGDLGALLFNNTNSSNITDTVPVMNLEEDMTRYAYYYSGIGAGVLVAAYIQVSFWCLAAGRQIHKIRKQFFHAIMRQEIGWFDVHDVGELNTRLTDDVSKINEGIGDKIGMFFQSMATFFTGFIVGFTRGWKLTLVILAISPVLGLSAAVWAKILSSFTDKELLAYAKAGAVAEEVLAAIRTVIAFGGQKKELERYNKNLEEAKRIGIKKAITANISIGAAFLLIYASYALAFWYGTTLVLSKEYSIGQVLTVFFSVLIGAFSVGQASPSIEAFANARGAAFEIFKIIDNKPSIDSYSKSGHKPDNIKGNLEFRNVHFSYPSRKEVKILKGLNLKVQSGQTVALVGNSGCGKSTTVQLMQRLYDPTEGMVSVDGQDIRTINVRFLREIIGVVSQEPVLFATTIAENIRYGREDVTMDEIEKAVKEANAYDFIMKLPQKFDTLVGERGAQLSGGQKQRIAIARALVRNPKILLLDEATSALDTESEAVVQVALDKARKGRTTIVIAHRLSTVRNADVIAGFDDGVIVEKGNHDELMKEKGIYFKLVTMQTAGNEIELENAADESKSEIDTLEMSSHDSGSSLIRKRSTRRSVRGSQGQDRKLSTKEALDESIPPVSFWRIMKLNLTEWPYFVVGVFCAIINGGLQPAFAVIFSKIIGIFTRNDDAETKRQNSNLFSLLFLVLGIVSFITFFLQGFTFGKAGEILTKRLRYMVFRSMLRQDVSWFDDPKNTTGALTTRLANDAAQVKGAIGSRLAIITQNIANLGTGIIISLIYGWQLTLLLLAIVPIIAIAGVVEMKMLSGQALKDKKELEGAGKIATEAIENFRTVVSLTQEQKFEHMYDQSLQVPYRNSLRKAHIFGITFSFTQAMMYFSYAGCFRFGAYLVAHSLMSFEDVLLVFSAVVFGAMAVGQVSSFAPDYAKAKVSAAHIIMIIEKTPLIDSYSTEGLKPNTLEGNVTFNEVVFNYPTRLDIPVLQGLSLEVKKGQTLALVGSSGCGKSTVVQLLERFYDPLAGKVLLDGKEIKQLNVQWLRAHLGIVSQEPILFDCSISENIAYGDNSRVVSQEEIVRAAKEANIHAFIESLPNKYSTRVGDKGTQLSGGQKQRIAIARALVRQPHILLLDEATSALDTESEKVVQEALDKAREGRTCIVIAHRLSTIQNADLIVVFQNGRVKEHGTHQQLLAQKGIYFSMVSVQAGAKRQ
# Protocol Details: Bidirectional transport assay, efflux ratio in Abcb1KO-MDCKII cyMDR1 cells
# Conditions: cynomolgus monkey, pH 7.4
Property Measured: efflux ratio at 120 min, 1 µM

{"Mol Smiles": "Cc1ncc2n1-c1ccc(Cl)cc1C(c1ccccc1F)=NC2", "Target Of Assay": "cynomolgus monkey Mdr1 (Macaca fascicularis, UniProt Q8HZQ6)", "Quantitative Readout": 0.43}
{"Mol Smiles": "Cc1nc2n(c(=O)c1CCN1CCC(c3noc4cc(F)ccc34)CC1)CCCC2", "Target Of Assay": "cynomolgus monkey Mdr1 (Macaca fascicularis, UniProt Q8HZQ6)", "Quantitative Readout": 1.23}
{"Mol Smiles": "COc1cc2nc(N3CCN(C(=O)c4ccco4)CC3)nc(N)c2cc1OC", "Target Of Assay": "cynomolgus monkey Mdr1 (Macaca fascicularis, UniProt Q8HZQ6)", "Quantitative Readout": 2.42}

----------
# Target Of Assay: rat Mdr1a (Rattus norvegicus, UniProt Q6PSM0)
# Sequence (Q6PSM0 1-1272): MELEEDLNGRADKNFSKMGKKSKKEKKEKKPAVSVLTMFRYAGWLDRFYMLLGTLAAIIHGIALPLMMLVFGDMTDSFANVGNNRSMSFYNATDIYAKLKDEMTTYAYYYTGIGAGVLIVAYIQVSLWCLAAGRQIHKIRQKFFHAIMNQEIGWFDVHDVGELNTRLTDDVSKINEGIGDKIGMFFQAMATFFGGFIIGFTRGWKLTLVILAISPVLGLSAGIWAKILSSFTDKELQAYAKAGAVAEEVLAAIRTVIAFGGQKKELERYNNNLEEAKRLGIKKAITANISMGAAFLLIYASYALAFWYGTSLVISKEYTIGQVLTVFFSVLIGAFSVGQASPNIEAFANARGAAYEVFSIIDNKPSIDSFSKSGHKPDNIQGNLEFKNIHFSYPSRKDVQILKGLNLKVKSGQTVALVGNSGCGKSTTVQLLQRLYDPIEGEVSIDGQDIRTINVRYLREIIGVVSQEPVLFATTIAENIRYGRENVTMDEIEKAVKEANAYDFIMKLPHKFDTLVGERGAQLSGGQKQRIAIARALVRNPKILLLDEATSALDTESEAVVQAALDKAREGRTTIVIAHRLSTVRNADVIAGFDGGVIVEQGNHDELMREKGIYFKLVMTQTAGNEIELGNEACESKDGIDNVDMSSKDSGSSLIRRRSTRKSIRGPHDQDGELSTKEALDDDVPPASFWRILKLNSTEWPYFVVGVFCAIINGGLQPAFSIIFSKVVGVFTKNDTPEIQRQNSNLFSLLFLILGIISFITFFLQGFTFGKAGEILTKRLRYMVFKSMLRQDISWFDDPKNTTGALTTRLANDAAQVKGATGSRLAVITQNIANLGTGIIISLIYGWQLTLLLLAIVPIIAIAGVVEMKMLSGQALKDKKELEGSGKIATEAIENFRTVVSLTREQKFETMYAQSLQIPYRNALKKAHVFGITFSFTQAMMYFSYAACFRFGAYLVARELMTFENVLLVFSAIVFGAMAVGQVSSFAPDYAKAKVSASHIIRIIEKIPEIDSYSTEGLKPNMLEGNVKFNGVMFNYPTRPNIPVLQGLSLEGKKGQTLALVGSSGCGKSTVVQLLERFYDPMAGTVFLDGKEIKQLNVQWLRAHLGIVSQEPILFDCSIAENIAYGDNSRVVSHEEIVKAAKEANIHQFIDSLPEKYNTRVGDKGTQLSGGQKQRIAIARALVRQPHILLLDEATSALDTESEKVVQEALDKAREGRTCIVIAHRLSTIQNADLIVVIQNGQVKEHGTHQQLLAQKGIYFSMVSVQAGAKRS
# Protocol Details: Inhibition of 3H-digoxin or 3H-quinidine bidirectional transport in rMDR1 cells
# Format: cell-based
# Parameters: rat Mdr1a (NM_133401.1); expressed in transfected cells; host or cells: Abcb1KO-MDCKII (canine kidney, endogenous Abcb1 knocked out), transduced, single-cell clone
# Conditions: Inhibition of quinidine transport IC50±SD, rMDR1, probe 3H-quinidine 1 µM, 30 min; IC50 from ER
pIC50: −log10 of the molar value.
Measured pIC50, listed per entry.
Property Measured: pIC50

{"Compound": "Cc1ccc(-c2ncc(Cl)cc2-c2ccc(S(C)(=O)=O)cc2)cn1 [Etoricoxib]", "Quantitative Readout": 4.73}
{"Compound": "CCC(C)n1ncn(-c2ccc(N3CCN(c4ccc(OCC5COC(Cn6cncn6)(c6ccc(Cl)cc6Cl)O5)cc4)CC3)cc2)c1=O (stereo not shown) [Itraconazole]", "Quantitative Readout": 6.82}
{"Compound": "O[C@@H](COc1cccc2ncccc12)CN1CCN([C@@H]2c3ccccc3[C@@H]3[C@H](c4ccccc42)C3(F)F)CC1 [Zosuquidar]", "Quantitative Readout": 6.24}
{"Compound": "COc1cc2c(cc1OC)CN(CCc1ccc(NC(=O)c3cccc4c(=O)c5cccc(OC)c5[nH]c34)cc1)CC2 [Elacridar]", "Quantitative Readout": 7.22}

These measurements were taken from paper PMC11207571.
